Reference source: the supplement of paper PMC6555819

System: LXRb homodimer (NR concentration 270 nM)
Assay: PBM binding z-score (relative to random genomic background probes); higher = stronger binding; sequences stand for … in GC…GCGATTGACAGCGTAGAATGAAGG
Each entry gets not satisfied if its PBM binding z-score stays under 0.5, and satisfied if its PBM binding z-score is 0.5 or above.

Please check the record TCTATTAGTTGATTAGGGTAACCGAAACAGCGGA and state if its PBM binding z-score is at or above 0.5.
satisfied

* * *

System: RARb:RXRa (NR concentration 270 nM, RXRa partner concentration 90 nM)
Test: PBM binding z-score (relative to random genomic background probes); higher = stronger binding; sequences stand for … in GC…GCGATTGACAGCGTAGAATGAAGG
experimental_readout: PBM binding z-score
Answers are plain numbers.

Before answering, review these 3 worked examples.
{"entry_sequence": "ACAGACAGGTGATGAAGGTAACTAAGGCTATCAT", "PBM binding z-score": 0.371}
{"entry_sequence": "AATACAGGGTCATCGAAGGCCAGAGTACGCACAG", "PBM binding z-score": 4.32}
{"entry_sequence": "TTACCAAGGTGGAAGGTCGTTGATGCACGCCTTG", "PBM binding z-score": 0.885}

Each sequence below has a reported value. Please supply its PBM binding z-score.
1. ACAGACAGGTGATGAAGGTAACTTAGGCTATCAT
2. GCTCGGAGGACAAGATCAGAGCTTTGTCCGTAGA
3. AATAGCAGGCCAAGGGTCACTCAAGATTAGTCCG

1: 0.163; 2: 0.581; 3: 3.54
